Each recorded value in this set is attributed to ChEMBL document CHEMBL1201862.

# Tested on: RPMI-8226
# protocol-details: NCI tumour cell line growth inhibition, 48 h
Calls of active or inactive are those of the source. No stated cut-off is given here; in the data, active = GI50 up to about 1.1 µM and inactive = higher.
# output must be one of y = active, n = inactive

The examples below pair each entry with its known result.
O=C(NCCNCCCNC(=O)c1cc(-c2ccccc2)nc2ccccc12)c1cccc(O)c1O    n
O=C(c1ccccc1)n1cc(-c2ccccc2)c2c(=O)nc[nH]c21    n
COc1cc2c(/C=C3/C(=O)Nc4ccccc43)c(Cl)[nH]c2cc1C    y

Ask: Please indicate how the test categorized O=C(O)c1ccccc1/C=N/N=C1c2ccccc2-c2ccccc21 .
Reply: n

Ask: Please indicate how the test categorized Cn1ncc2c(c1=O)Nc1ccccc1S2(=O)=O .
Reply: n

Ask: Please indicate how the test categorized COc1cc(C2c3cc4c(cc3[C@@H](Nc3cnc5ccccc5c3)C3COC(=O)[C@H]23)OCO4)cc(OC)c1O (stereo partly specified) .
Reply: y

Ask: Please indicate how the test categorized Cc1ccc(S(=O)(=O)SCc2ccccc2)cc1 .
Reply: n

Ask: Please indicate how the test categorized CC(=O)C(C)CCOC1(C)OCCC1C (stereo unspecified) .
Reply: n

====

Entries annotated with measured GI50
# Test system: SK-MEL-5
# protocol-details: NCI tumour cell line growth inhibition, 48 h
The source made the active and inactive calls. Cut-off read from the data, not from the text of the source: active = GI50 up to about 1.1 µM and inactive = higher.

Example entries and their recorded answers appear below.
O=P1(c2ccccc2)C(c2ccccc2)=CC=C1c1ccccc1    6.24 µM (inactive)
Cn1c2ccccc2c2[nH]c3ccccc3c(=O)c21    46.2 µM (inactive)
Cc1cc(NCCCCCCCNc2cc(C)nc3cc(N)ccc23)c2ccc(N)cc2n1    22.2 µM (inactive)

Ask: Sample COc1ccc(-n2c(C)nc3ccc(NC4OCC(OC(C)=O)C(OC(C)=O)C4OC(C)=O)cc3c2=O)cc1 (stereo not given) — what was its GI50?
Reply: > 100 µM (inactive)

Ask: Sample COc1ccc(/C=C/C(=O)CC(=O)/C=C/c2ccc(OC)cc2)cc1 — what was its GI50?
Reply: 67.6 µM (inactive)

====

# System: SK-MEL-28
# protocol-details: NCI tumour cell line growth inhibition, 48 h
Activity calls are given as the source filed them. Rule as the data show it: active = GI50 up to about 1.1 µM and inactive = higher.
Entries annotated with measured GI50

Example entries and their recorded answers appear below.
Cn1cc(C[C@@H](N)C(=O)O)c2ccccc21    > 100 µM (inactive)
CC(C)(C)c1cc(C2=NNC(c3ccccc3)C2)cc(C(C)(C)C)c1O (configuration not stated)    15.9 µM (inactive)
Cc1ccsc1C(=S)Nc1ccc(Cl)c(/C=N/OC(C)C)c1    67.8 µM (inactive)
CN(C)C(=S)SCC(=O)Nc1ccccc1    80.4 µM (inactive)
COC1=C(Br)[C@H](O)[C@@]2(C=C1Br)CC(C(=O)NCCCCCNC(=N)N)=NO2    > 10 µM (inactive)
NNc1nncc2[nH]nnc12    > 100 µM (inactive)

Ask: Sample CN(C)Cc1cc(/N=N/c2ccccc2Cl)ccc1O — what was its GI50?
Reply: 16.9 µM (inactive)

Ask: Sample CSCCCN(CCCSC)CCCSC — what was its GI50?
Reply: > 100 µM (inactive)

Ask: Sample COC(=O)c1cc(C)ccc1CC(Cc1ccccc1C)C(=O)OC (configuration not stated) — what was its GI50?
Reply: 88.1 µM (inactive)

Ask: Sample C[C@]12CCC[C@H](OC=O)C1(O)C[C@H](C(=O)O)CC2 (some centres not stated) — what was its GI50?
Reply: > 100 µM (inactive)

Ask: Sample Cc1c2cccc-2ccc2c1[nH]c1ccc(Br)cc12 — what was its GI50?
Reply: 7.03 µM (inactive)

Ask: Sample O=C1CCc2cc(Br)ccc2O1 — what was its GI50?
Reply: > 100 µM (inactive)
